# ASSAYED_SYSTEM: Muscarinic acetylcholine receptor M1 (Homo sapiens) (UniProt P11229)
# Sequence (P11229 whole entry, looked up): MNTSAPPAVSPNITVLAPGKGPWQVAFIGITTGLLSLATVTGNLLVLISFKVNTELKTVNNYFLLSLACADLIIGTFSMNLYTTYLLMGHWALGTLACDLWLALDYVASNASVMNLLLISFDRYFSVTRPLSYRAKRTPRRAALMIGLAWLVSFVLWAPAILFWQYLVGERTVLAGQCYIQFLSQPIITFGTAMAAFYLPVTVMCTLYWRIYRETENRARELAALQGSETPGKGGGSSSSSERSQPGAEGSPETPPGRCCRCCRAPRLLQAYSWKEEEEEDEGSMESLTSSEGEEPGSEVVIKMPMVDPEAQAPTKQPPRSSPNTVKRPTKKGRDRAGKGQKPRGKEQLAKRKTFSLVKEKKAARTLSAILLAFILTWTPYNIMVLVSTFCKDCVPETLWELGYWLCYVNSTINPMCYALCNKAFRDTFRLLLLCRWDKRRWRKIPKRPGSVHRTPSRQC
# ASSAY_PROTOCOL: human M1 muscarinic receptor agonists, primary screen, Fluo-8 calcium fluorescence, CHO-K1 cells, HTS (AID 588814);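 note: peak over basal fluorescence ratio within a 140 s kinetic read after compound addition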
# PARTICULARS: CHO-K1 hM1, Fluo-8 calcium fluorescence, agonist mode; at 3 µM; 0% DMSO, 100% acetylcholine EC100
The campaign covered roughly 360,000 compounds. About 1,200 (0.33%) were called active.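 Rule for the calls: active = activation above the run's mean compound activation plus 3 SD (cut at about 16% in these data); inactive = the rest.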 Only a selection was taken, and actives are over-represented in it overall.
Give your call using only these classes: 1.0 = active, 0.0 = inactive

See these solved cases before continuing.
MOLECULE: CCOC(=O)N1CCN(C(=O)c2nn(-c3ccc(C)cc3)c(=O)c3c2c2ccccc2n3C)CC1
GROUP: 0.0
--
MOLECULE: N#CC1(NC(=O)COC(=O)CCN=C2NS(=O)(=O)c3ccccc32)CCCCC1
GROUP: 0.0
--
MOLECULE: CCN(CC)CCCC(C)n1c2nc(=O)[nH]c(=O)c-2nc2cc(Cl)ccc21 (stereo not drawn)
GROUP: 1.0
--
MOLECULE: CC(=O)OC(C)C[N+](C)(C)C (stereo not drawn)
GROUP: 1.0
--
MOLECULE: CN(C(=O)COC(=O)c1ccc(Br)o1)c1c(N)n(Cc2ccccc2)c(=O)[nH]c1=O
GROUP: 0.0
--
MOLECULE: O=C(OCCN=C1NS(=O)(=O)c2ccccc21)c1cccc([N+](=O)[O-])c1
GROUP: 0.0
--
MOLECULE: Cc1ccc(-n2nc(C)c(/C=N/NC(=O)c3cccs3)c2Cl)cc1
GROUP: 1.0
--
MOLECULE: Cc1cc2nc3c(=O)n(Cc4ccccc4)c(=O)[nH]c3nc2cc1N
GROUP: 1.0

Input line: Recorded call for CC(=O)OCCC(C)C ?
Output line: 0.0

Input line: Test call for this molecule, please: O=C(Cn1ncc2c3ccccc3n(Cc3ccccc3)c2c1=O)NCc1ccccn1
Output line: 0.0

Input line: // outcome(item) with item = CC1(C(=O)NS(=O)(=O)c2cccc(F)c2)CCN1C(=O)Cc1ccc(Cl)cc1Cl (stereo not drawn)
Output line: 0.0

Input line: Could you kindly confirm the outcome this assay logged for O=C1COc2ccc(C(=O)CSc3ccc(Br)cc3)cc2N1 ?
Output line: 0.0

###

# ASSAYED_SYSTEM: Muscarinic acetylcholine receptor M1 (Homo sapiens)
# ASSAY_PROTOCOL: human M1 muscarinic receptor agonists, primary screen, Fluo-8 calcium fluorescence, CHO-K1 cells, HTS (AID 588814)
# PARTICULARS: CHO-K1 hM1, Fluo-8 calcium fluorescence, agonist mode; at 3 µM; 0% DMSO, 100% acetylcholine EC100
The campaign covered roughly 360,000 compounds. About 1,200 (0.33%) were called active.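 Rule for the calls: active = activation above the run's mean compound activation plus 3 SD (cut at about 16% in these data); inactive = the rest.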 The list comes from a sample in which actives are over-represented; it also holds close analogues and randomly drawn compounds.
Can you answer with just one of these options? active, inactive

MOLECULE: Cc1ccc(SCC(=O)Nc2nncs2)cc1
GROUP: inactive

MOLECULE: Cc1ccc(O)c(NC(=S)NC(=O)COc2ccc(Br)cc2)c1
GROUP: active

Input line: # fetch the recorded call for CC(=O)Nc1ccc(OC(=O)COc2ccc(Br)cc2)cc1 here
Output line: inactive

Input line: Lab log entry: COc1cc(OC)cc(C(=O)NC(C(=O)N2CCC2)C(C)C)c1 (stereo unspecified) — outcome as called in the assay?
Output line: inactive

Input line: Kindly provide the recorded test outcome for the following molecule: Cn1cccc1C(=O)NNC(=O)COc1ccc(Br)cc1
Output line: inactive

Input line: I'd appreciate the recorded outcome for Cc1ccc(S(=O)(=O)N(CC(=O)Nc2cccnc2)c2ccc(Br)cc2)cc1 from this test.
Output line: inactive

###

# ASSAYED_SYSTEM: Muscarinic acetylcholine receptor M1 (Homo sapiens) (UniProt P11229)
# ASSAY_PROTOCOL: human M1 muscarinic receptor agonists, primary screen, Fluo-8 calcium fluorescence, CHO-K1 cells, HTS (AID 588814)
# PARTICULARS: CHO-K1 hM1, Fluo-8 calcium fluorescence, agonist mode; at 3 µM; 0% DMSO, 100% acetylcholine EC100
Hit rate of the full screen: of about 360,000 compounds, about 1,200 (0.33%) were called active.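 Rule for the calls: active = activation above the run's mean compound activation plus 3 SD (cut at about 16% in these data); inactive = the rest.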 For the sample, actives were picked, then their nearest neighbours and some compounds at random.
Tick one outcome: active, inactive

MOLECULE: O=C(Nc1cccc2c1CCCC2)C1CCN(C(=O)NC2CCCCC2)CC1
ASSAYED_SYSTEM: Muscarinic acetylcholine receptor M1 (Homo sapiens) (UniProt P11229)
GROUP: inactive

Input line: Answer briefly: the call reported for COc1cc(NC(=O)CN2C(=O)NC(C)(c3ccc(OC(F)F)cc3)C2=O)cc(OC)c1OC (stereo not given) in this assay.
Output line: inactive

Input line: What did this assay record as the result for O=C(NC1CCCCC1)N1CCc2[nH]c3ccccc3c2C1 ?
Output line: active

Input line: Hey, what did the test say about O=S1(=O)C[C@@H](N2CCN(CCO)CC2)[C@H](COCc2ccccc2)N1 ?
Output line: active

Input line: Please state the recorded outcome for this molecule: O=C(c1ccccc1)c1cccn1CC(=O)N1CCN(c2ccc(F)cc2)CC1
Output line: inactive

Input line: I would be grateful if you could indicate the recorded call for O=C1Nc2ccc([N+](=O)[O-])cc2C1=Nc1cccc(CO)c1 .
Output line: inactive

Input line: Write down the call the test reported for this molecule. Item: CCCCN1CC(COCc2ccccc2)OCCS1(=O)=O (stereo not given)
Output line: inactive

Input line: Per the records of this test, what outcome belongs to CCc1ccc(NC(=O)N2CCc3ccccc3C2)cc1 ?
Output line: inactive

Input line: Please state the recorded outcome for this molecule: COCCCNc1nc2c(-c3cccc(C)c3)nnn2c2ccc(Cl)cc12
Output line: inactive

###

# ASSAYED_SYSTEM: Muscarinic acetylcholine receptor M1 (Homo sapiens)
# ASSAY_PROTOCOL: human M1 muscarinic receptor agonists, primary screen, Fluo-8 calcium fluorescence, CHO-K1 cells, HTS (AID 588814);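 note: peak over basal fluorescence ratio within a 140 s kinetic read after compound addition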
# PARTICULARS: CHO-K1 hM1, Fluo-8 calcium fluorescence, agonist mode; at 3 µM; hits give high values; 0% DMSO, 100% acetylcholine EC100
The whole screen tested about 360,000 compounds, of which about 1,200 (0.33%) were called active. Only a selection was taken, and actives are over-represented in it overall.
OBSERVED_PROPERTY: activation (%)
# unit: % | format: bare number

Input line: Given CCCCC(=O)NNC(=S)NC(=O)C(c1ccccc1)c1ccccc1 , state its recorded activation.
Output line: 88.8

Input line: Reported activation, compound CC(C)CC(=O)NC(=S)NCc1ccccc1 : ____
Output line: -7.45

Input line: Entry CN(CCO)C(=O)c1nc[nH]c1C(=O)N(C)Cc1ccccc1 : reported activation = ?
Output line: -4.9

Input line: Consider the compound shown here: O=C(COc1ccc(Cl)cc1)Nc1ccccc1CO What is its recorded activation?
Output line: -3.25

Input line: Recorded activation for Cc1ccc2oc(=O)ccc2c1 , please?
Output line: -4.21

###

# ASSAYED_SYSTEM: Muscarinic acetylcholine receptor M1 (Homo sapiens)
# ASSAY_PROTOCOL: human M1 muscarinic receptor agonists, primary screen, Fluo-8 calcium fluorescence, CHO-K1 cells, HTS (AID 588814);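 note: peak over basal fluorescence ratio within a 140 s kinetic read after compound addition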
# PARTICULARS: CHO-K1 hM1, Fluo-8 calcium fluorescence, agonist mode; at 3 µM; hits give high values; 0% DMSO, 100% acetylcholine EC100
In all, about 360,000 compounds went through this assay and about 1,200 (0.33%) were called active. For the sample, actives were picked, then their nearest neighbours and some compounds at random.
Entries annotated with measured activation
State the answer as a number, implicitly in %.

MOLECULE: O=C1C(=O)N(CC2COc3ccccc3O2)c2ccccc21 (stereo unspecified)
READOUT_UNITS: %
NUMERIC_VALUE: 39.1

Input line: activation for Cc1cc(O)ccc1-c1cc(C(=O)NCc2cc(C(F)(F)F)cc(C(F)(F)F)c2)[nH]n1 ?
Output line: 16.9

Input line: Which activation value belongs to COCCNC(=O)C1CCCN(Cc2ccccc2Cl)CC1 (stereo unspecified) ?
Output line: -7.52

Input line: Which activation reading was recorded for the molecule O=C(CNc1cccc(S(=O)(=O)N2CCCCC2)c1)Nc1ccccc1F ?
Output line: 2.04

Input line: Given the entry CCCOc1ccc(F)cc1-c1cc(C(=O)NCc2ccc(F)cc2)[nH]n1 , report its measured activation.
Output line: -7.18

Input line: Could you share which activation value was measured for Nc1nc(SCC(=O)NNc2c(Cl)cc(Cl)cc2Cl)n[nH]1 ?
Output line: -4.83

###

# ASSAYED_SYSTEM: Muscarinic acetylcholine receptor M1 (Homo sapiens) (UniProt P11229)
# ASSAY_PROTOCOL: human M1 muscarinic receptor agonists, primary screen, Fluo-8 calcium fluorescence, CHO-K1 cells, HTS (AID 588814);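 note: peak over basal fluorescence ratio within a 140 s kinetic read after compound addition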
# PARTICULARS: CHO-K1 hM1, Fluo-8 calcium fluorescence, agonist mode; at 3 µM; 0% DMSO, 100% acetylcholine EC100
The whole screen tested about 360,000 compounds, of which about 1,200 (0.33%) were called active.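 The calls were made as follows: active = activation above the run's mean compound activation plus 3 SD (cut at about 16% in these data); inactive = the rest.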 What follows is part of a selection rich in actives, with near analogues and random picks from the rest.
I would appreciate it if you answered using one of these outcomes: 1.0 for active, 0.0 for inactive

COMPOUND: O=c1o[nH]c(-c2ccccc2)c1N=Nc1c(F)cccc1Cl
GROUP: 0.0

COMPOUND: CCCNC(=O)CCn1nc(-c2ccccc2)c2ccccc2c1=O
GROUP: 0.0

COMPOUND: COc1ccc(NC(=O)Cn2nnc(C(=O)NCCc3ccc(OC)c(OC)c3)c2N)cc1
GROUP: 0.0

COMPOUND: CCOc1ccc(Cn2nnc(C(=O)NCc3ccccc3)c2N)cc1
GROUP: 1.0

COMPOUND: COc1ccc(CNC(=O)c2nnn(CC(=O)Nc3cc(C)cc(C)c3)c2N)cc1
GROUP: 0.0

COMPOUND: O=C(NC(c1ccc(-c2ccccc2)cc1)c1cnccn1)C1CCN(CCOc2ccc(Cl)cc2Cl)CC1 (stereo unspecified)
GROUP: 0.0

COMPOUND: Nc1ccc2nc3c(=O)[nH]c(=S)[nH]c3nc2c1
GROUP: 1.0

COMPOUND: OC(c1ccc(F)cc1)c1ncc(-c2cccc(C(F)(F)F)c2)[nH]1 (stereo unspecified)
GROUP: 0.0

COMPOUND: Cc1occc1-c1nnc(SCC(=O)NC2(C#N)CCCC2)n1C
GROUP: 0.0

COMPOUND: CCOc1ccc(Cn2nnc(C(=O)Nc3ccc(OC)cc3OC)c2N)cc1
GROUP: 1.0

We now examine a further compound.
Input line: How did this test come out for COc1cccc(CNC(=O)c2nnn(CC(=O)Nc3cc(Cl)ccc3C)c2N)c1 ?
Output line: 0.0
